The measured values listed here are drawn from patent US20240238278A1.

test: Pharmacokinetic test after single oral administration in ICR mice; assay type: in vivo; details: mouse, blood, ICR mice (male), 10 mg/kg
readout-name: Cmax (ng/mL)

* O[C@H]1CCCN[C@@H]1CCCn1cnc2c(Cl)c(Cl)ccc21 [First component] | 263

----------
assay: Human pharmacokinetics, single administration; format: in vivo; details: human, plasma, oral; single administration, across 100-600 mg doses; read-out: geometric mean half-life
readout-name: half-life

- O[C@H]1CCCN[C@@H]1CCCn1cnc2c(Cl)c(Cl)ccc21: 6.91 to 9.9 h

----------
experiment: Human pharmacokinetics, single administration; assay type: in vivo; details: human, plasma; healthy adults, single oral 100 mg, enteric coated capsules, empty stomach
readout-name: AUC(0-inf) (ng·h/mL)

* O[C@H]1CCCN[C@@H]1CCCn1cnc2c(Cl)c(Cl)ccc21 [Active component] | 639
